Quick reference for melting point among some molecules

| Molecule | melting point |
| --- | --- |
| CCc1c(C(=O)C(C)C)c2ccc(C#N)cc2n1Cc1ccccc1Cl | 132 to 134 °C |
| Cc1cc(C)c2nccn2n1 | 70 to 74 °C |
| Cc1ncc2n1-c1ccc(Cl)cc1C(c1ccccc1F)N(C)C2 (stereo unspecified) | 156 to 158 °C |

Inquiry: Requested field: melting point. Item: Nc1cc(OCc2ccccc2)c(OCc2ccccc2)cc1C=C(Br)Br
Reply text: 95 to 98 °C

Inquiry: Requested field: melting point. Item: O=Cc1cccc(CSCCNC(=O)c2c(Cl)cccc2Cl)c1
Reply text: 63 to 65 °C

Inquiry: Requested field: melting point. Item: CCCCCCCCOc1ccc(C#N)c(O)c1
Reply text: 69 to 71 °C

----------
Quick reference for melting point among some molecules

As a guide, the following entries are already answered.
| Molecule | melting point |
| --- | --- |
| CC(=O)NC(=O)CSC(=O)c1ccco1 | 103 to 105 °C |
| CC12CCC(=O)N1CC(=O)N2 (stereo not given) | 187 to 189 °C |
| Cc1c(C=O)c2c(c(C)c1NC(=O)CC(C)(C)C)CC(C)(C)O2 | 180 to 181 °C |

Inquiry: Requested field: melting point. Item: CCCOc1ccc(C(=O)Cn2cncn2)cc1
Reply text: 97 to 99 °C

Inquiry: Requested field: melting point. Item: Cn1c(=O)c2c(nc(Cl)n2Cc2ccccc2C#N)n(C)c1=O
Reply text: 222 to 224 °C

----------
Quick reference for melting point among some molecules

As a guide, the following entries are already answered.
| Chemical Smiles | Reported Metric | Result |
| --- | --- | --- |
| COc1ccc(C2=NN(C3CCN(S(=O)(=O)c4ccccc4C#N)CC3)C(=O)CC2)cc1OC | melting point | 158 to 160 °C |
| CCC(=O)Nc1cccc(NC(=O)CC(C)=O)c1 | melting point | 70 °C |

Next molecule, melting point to be filled in.
Inquiry: Requested field: melting point. Item: Nc1nc2c(s1)CCN(CC=Cc1ccc3[nH]ccc3c1)CC2
Reply text: 60 to 65 °C

----------
Reported Metric: melting point

As a guide, the following entries are already answered.
| Molecule | melting point |
| --- | --- |
| CC(=NO)C1CC(Cn2ccnc2)(c2ccc(Cl)cc2)N(C)O1 (configuration not stated) | 214 to 216 °C |
| Cn1c(=O)c(-c2ccc(Cl)cc2Cl)cc2c3cc(-c4nc(CC(=O)O)cs4)ccc3n(C)c21 | 234 to 239 °C |
| COc1cc(Br)c(OC)c2c1C=C([N+](=O)[O-])CC2 | 121 to 123 °C |
| COc1ccc(N)c(OCC(N)=O)c1 | 139 to 140 °C |
| O=S(=O)(c1ccccc1)n1ccc2cnccc21 | 127 °C |
| CCCCOCCOc1ccc(-c2ccc3c(c2)C=C(C(=O)Nc2ccc(/C(Cc4nccn4CCC)=N/OC)cc2)CCN3CC(C)C)cc1 | 159 to 161 °C |

Inquiry: Requested field: melting point. Item: O=C(O)Cc1cccc(OCCCNCC(c2ccccc2)c2ccccc2)c1
Reply text: 49.1 °C

Inquiry: Requested field: melting point. Item: Cc1cc2c(-c3cn(C)c(C(F)(F)F)cc3=O)c(F)cc(Cl)c2o1
Reply text: 208 to 211 °C

Inquiry: Requested field: melting point. Item: O=C(CCCCNC(=O)C(=O)c1cn2c3c(cccc13)CCC2)NOCc1ccccc1
Reply text: 62 to 64 °C

Inquiry: Requested field: melting point. Item: O=Cc1ccc2c(c1)C13CC2c2ccccc2C1CN(CC1CCCC1)C3 (configuration not stated)
Reply text: 170 to 175 °C

Inquiry: Requested field: melting point. Item: COc1ccc(-c2cc(C)c(N)c(CO)c2)cn1
Reply text: 80 to 82 °C

Inquiry: Requested field: melting point. Item: Cc1sc2cc3ccccc3c(-c3ccc(O)c(C4CCCC4)c3)c2c1C
Reply text: 156 to 158 °C

Inquiry: Requested field: melting point. Item: COc1nc2cc(C)c(Cl)c(N)c2nc1OC
Reply text: 169 to 170 °C

Inquiry: Requested field: melting point. Item: Cc1ccc(C2CCN(C(=O)CCC(=O)c3ccc4c(c3)CN(C(C)C)CC4)CC2)cc1
Reply text: 78 to 80 °C

----------
Quick reference for melting point among some compounds

| Compound | Result |
| --- | --- |
| CS(=O)(=O)c1ccc(-c2cnn(CC(F)(F)F)c(=O)c2C2=CCCCC2)cc1 | 75 to 81 °C |
| CC(=O)N(C#N)C/C=C\CN(C#N)C(C)=O | 73.8 to 75.2 °C |
| CCOC(=O)Cc1sc(Sc2cc(C(=O)OC)ccn2)nc1C | 52 to 54 °C |
| CN1CCN(CCC(=O)Nc2ccc3c(c2)C(=O)c2cc(NC(=O)CCN4CCN(C)CC4)ccc2C3=O)CC1 | 284 °C |
| O=C(O)COc1ccc(C(=O)c2cccc(Cl)c2)c(Cl)c1Cl | 155 to 156 °C |

Inquiry: Requested field: melting point. Item: COC(=O)CCn1c(=O)n(CCN2CCN(c3ccccc3OC)CC2)c(=O)c2sccc21
Reply text: 151 to 152 °C

Inquiry: Requested field: melting point. Item: Fc1cccc(/C=C/C2=CCN(Cc3c[nH]c4ncccc34)CC2)c1
Reply text: 199 to 201 °C

Inquiry: Requested field: melting point. Item: O=c1c2ccc(Cl)cc2[nH]c2c(O)nn(CC#Cc3ccc(Cl)cc3)c(=O)c12
Reply text: 251 to 252 °C

Inquiry: Requested field: melting point. Item: O=S1(=O)N=CN(C2CC2)c2cc(Cl)c(F)cc21
Reply text: 205 to 206 °C

Inquiry: Requested field: melting point. Item: NCCCCc1csc(-c2ccccn2)n1
Reply text: 119 to 121 °C

Inquiry: Requested field: melting point. Item: CC/C=C\C=C/CCCCCCCCCC=O
Reply text: 7 to 8 °C

Inquiry: Requested field: melting point. Item: Nc1ccc(CCNS(=O)(=O)c2cccc3[nH]nnc23)cc1
Reply text: 178 to 179 °C

Inquiry: Requested field: melting point. Item: O=C(CCc1ccccc1)Nc1cccc(C(=O)NN=C2C(=O)Nc3ccc(I)cc32)c1
Reply text: 293 °C

Inquiry: Requested field: melting point. Item: CCOP(=O)(Cc1ccc(C(N)=O)cc1)OCC
Reply text: 177 to 178 °C

Inquiry: Requested field: melting point. Item: CC(C)(C)OC(=O)[C@H](Cc1ccccc1)NC(=O)CNC1Cc2ccccc2C1
Reply text: 117 to 120 °C

----------
Reported Metric: melting point

As a guide, the following entries are already answered.
| Compound | melting point |
| --- | --- |
| CON=C(C(=O)OC)c1cccc(OCc2ccccc2)c1 | 62 to 63 °C |
| COc1ccc([C@H]2Cc3c(cccc3C(F)(F)F)NC(=O)[C@H]2OC(=O)c2ccccc2C(=O)O)cc1 (relative stereo) | 161 to 162 °C |
| COC(=O)c1sc(-c2ccc(OCc3ccc([N+](=O)[O-])cc3)c(OC)c2)cc1NC(C)=O | 193 to 194 °C |
| COc1cc(C)c(NC(=O)OC(C)(C)C)c(C)c1C | 104 to 106 °C |
| CSc1snc(C(F)(F)F)c1C(=O)O | 260 to 262 °C |
| CN(C)c1nn(-c2cc(F)c(C#N)cc2F)c(=O)n1C | 131 to 133 °C |

Inquiry: Requested field: melting point. Item: CC(C)N1CC2(COc3ccc([N+](=O)[O-])cc3OC2)OC1c1ccccc1 (configuration not stated)
Reply text: 151 to 152 °C

Inquiry: Requested field: melting point. Item: COC1CC2CCC1C2Nc1ccc([N+](=O)[O-])c2onnc12 (configuration not stated)
Reply text: 178 to 180 °C

Inquiry: Requested field: melting point. Item: CC(=O)ON(C)C(=O)/C=C/c1ccc(-n2c(C)ccc2C)cc1
Reply text: 120 to 121 °C

Inquiry: Requested field: melting point. Item: COc1ccc(/C=C/c2ccc3c(=O)[nH]ncc3c2)cc1
Reply text: 280 to 289 °C

Inquiry: Requested field: melting point. Item: CC(C)C(=O)C(C#N)=C(O)c1ccc(C(F)(F)F)cc1[N+](=O)[O-]
Reply text: 83 to 85 °C

Inquiry: Requested field: melting point. Item: COc1ccc2c(c1)CCN(C(C)=O)CC2
Reply text: 89 to 90 °C

Inquiry: Requested field: melting point. Item: CCc1nc2c(N)nc3cc(OCc4cccc(Cl)n4)ccc3c2s1
Reply text: 229 to 230 °C

Inquiry: Requested field: melting point. Item: Cc1c(CCC(=O)O)c2cc(Br)ccc2n1Cc1ccc(Br)cc1
Reply text: 169 to 170 °C

----------
Quick reference for melting point among some molecules

As a guide, the following entries are already answered.
| Molecule | Result |
| --- | --- |
| CC(C)N(CCN1C(=O)/C(=N/NC(=O)NCc2ccccc2)c2ccccc21)C(C)C | 164 to 165 °C |
| Cc1nc(N)c(C#N)c(-c2ccco2)n1 | 317 to 320 °C |
| O=C1CCN(C(=O)N2CCN3C(=O)OC(c4ccccc4)(c4ccccc4)C3C2)c2ccccc21 (centres undefined) | 202 to 205 °C |
| CSc1cc(C)nc(SC)c1NC(=O)CCCCCSc1nc2ccccc2o1 | 120 to 121 °C |
| CNC(=O)c1ccc(F)c2c1CC(N(CCc1c[nH]c3ccc(F)cc13)C1CCC1)CO2 (centres undefined) | 131 °C |

Inquiry: Requested field: melting point. Item: COC(=O)c1cc(O)c2cc3c(O)cc(C(=O)OC)nc3c(C)c2n1
Reply text: 296 °C

Inquiry: Requested field: melting point. Item: CCOC(=O)c1ccc(CCC(=O)O)[nH]1
Reply text: 126 to 128 °C

Inquiry: Requested field: melting point. Item: O=C1c2cc([N+](=O)[O-])cc3c(N4CCCC4)c([N+](=O)[O-])cc(c23)C(=O)N1O
Reply text: 249 to 250 °C

Inquiry: Requested field: melting point. Item: CC(=O)Nc1nc(Cl)c2ncn(COC(COC(C)=O)COC(C)=O)c2n1
Reply text: 139 to 140 °C
